Listing of recorded IC50 by entry.
target.desc: cardiac phosphodiesterase III (PDEIII), dog (Canis lupus familiaris, UniProt A0A8I3NYE0)
Construct: enzyme preparation isolated from dog and guinea-pig heart; from tissue; host or cells: dog heart
Sequence (A0A8I3NYE0 1-1135): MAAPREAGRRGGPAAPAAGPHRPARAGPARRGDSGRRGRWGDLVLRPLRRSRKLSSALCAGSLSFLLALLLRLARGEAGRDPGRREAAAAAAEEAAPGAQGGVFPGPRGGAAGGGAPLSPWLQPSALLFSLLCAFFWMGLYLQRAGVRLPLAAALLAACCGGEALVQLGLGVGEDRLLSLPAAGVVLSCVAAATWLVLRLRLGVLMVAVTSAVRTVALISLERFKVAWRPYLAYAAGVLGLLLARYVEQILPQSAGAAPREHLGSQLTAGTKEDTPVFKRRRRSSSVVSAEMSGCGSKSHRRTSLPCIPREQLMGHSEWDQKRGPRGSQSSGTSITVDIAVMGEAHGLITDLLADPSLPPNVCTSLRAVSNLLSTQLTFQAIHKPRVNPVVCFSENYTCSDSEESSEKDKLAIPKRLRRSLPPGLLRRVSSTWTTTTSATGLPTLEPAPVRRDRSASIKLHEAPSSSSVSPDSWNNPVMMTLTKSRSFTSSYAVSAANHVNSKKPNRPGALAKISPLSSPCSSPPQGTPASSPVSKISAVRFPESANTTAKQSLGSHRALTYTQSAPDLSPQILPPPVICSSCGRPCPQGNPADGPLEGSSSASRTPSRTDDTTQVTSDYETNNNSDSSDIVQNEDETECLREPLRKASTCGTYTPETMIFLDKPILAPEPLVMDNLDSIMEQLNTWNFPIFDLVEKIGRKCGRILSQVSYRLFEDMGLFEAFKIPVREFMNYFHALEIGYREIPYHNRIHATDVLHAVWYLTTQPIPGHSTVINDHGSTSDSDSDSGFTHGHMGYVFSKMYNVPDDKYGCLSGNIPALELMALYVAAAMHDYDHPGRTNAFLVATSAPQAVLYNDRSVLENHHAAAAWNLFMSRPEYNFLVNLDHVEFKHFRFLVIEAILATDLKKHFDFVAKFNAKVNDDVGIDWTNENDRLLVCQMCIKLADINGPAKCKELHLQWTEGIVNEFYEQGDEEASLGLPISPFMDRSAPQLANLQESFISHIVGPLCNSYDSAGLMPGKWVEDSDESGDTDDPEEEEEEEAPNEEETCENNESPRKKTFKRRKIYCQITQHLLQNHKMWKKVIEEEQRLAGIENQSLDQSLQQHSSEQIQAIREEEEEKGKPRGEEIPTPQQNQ
experimental.protocol: Inhibition of cardiac phosphodiesterase III, dog heart enzyme preparation
Assay type: biochemical
recorded.conditions: dog heart; read-out: IC50-value, inhibition of cardiac phosphodiesterase III, Dog
readout.kind: IC50 (nM)

>>> recorded_result("COc1ccc(-c2nc3ccc(C4=NNC(=O)CC4C)cc3[nH]2)cc1 (stereo not drawn) [pimobendan, reference compound]")
1750
>>> recorded_result("N#CC(C#N)=NNc1ccc(C2=NNC(=O)CC2)cc1")
270
>>> recorded_result("O=C1CCC(c2ccc(Nc3ccncc3)cc2)=NN1 [MCI-154, reference compound]")
420
>>> recorded_result("CC1(C)C(=O)Nc2cc3[nH]c(-c4ccncc4)nc3cc21 [adibendan, reference compound]")
1000
>>> recorded_result("CC1CC(=O)NN=C1c1ccc(NN=C(C#N)C#N)cc1 (stereo not drawn)")
62
>>> recorded_result("CC(=O)C(=NNc1ccc(C2=NNC(=O)CC2)cc1)C(C)=O")
230

###

System: guinea-pig papillary muscle
experimental.protocol: Cardiotonic effect in isolated, electrically driven, right ventricular papillary muscle, without and with carbachol
recorded.conditions: Cavia porcellus; without carbachol; read-out: EC50 cardiotonic effect (A)
Each entry below carries its recorded EC50.
readout.kind: EC50 (nM)

>>> recorded_result("CC1CC(=O)NN=C1/C=C/c1ccc(NN=C(C#N)C#N)cc1 (centres unmarked)")
300
>>> recorded_result("CC1SC(=O)NN=C1c1ccc(NN=C(C#N)C#N)cc1 (centres unmarked)")
120
>>> recorded_result("COc1ccc(-c2nc3ccc(C4=NNC(=O)CC4C)cc3[nH]2)cc1 (centres unmarked) [pimobendan, reference compound]")
3300
>>> recorded_result("CC(=O)C(=NNc1ccc(C2=NNC(=O)CC2)cc1)C(C)=O")
740
>>> recorded_result("N#CC(C#N)=NNc1ccc(C2=NNC(=O)SC2)cc1")
1100

###

target.desc: cardiac phosphodiesterase III (PDEIII), dog (Canis lupus familiaris)
Construct: enzyme preparation isolated from dog and guinea-pig heart; from tissue; host or cells: dog heart
Sequence (A0A8I3NYE0 1-1135): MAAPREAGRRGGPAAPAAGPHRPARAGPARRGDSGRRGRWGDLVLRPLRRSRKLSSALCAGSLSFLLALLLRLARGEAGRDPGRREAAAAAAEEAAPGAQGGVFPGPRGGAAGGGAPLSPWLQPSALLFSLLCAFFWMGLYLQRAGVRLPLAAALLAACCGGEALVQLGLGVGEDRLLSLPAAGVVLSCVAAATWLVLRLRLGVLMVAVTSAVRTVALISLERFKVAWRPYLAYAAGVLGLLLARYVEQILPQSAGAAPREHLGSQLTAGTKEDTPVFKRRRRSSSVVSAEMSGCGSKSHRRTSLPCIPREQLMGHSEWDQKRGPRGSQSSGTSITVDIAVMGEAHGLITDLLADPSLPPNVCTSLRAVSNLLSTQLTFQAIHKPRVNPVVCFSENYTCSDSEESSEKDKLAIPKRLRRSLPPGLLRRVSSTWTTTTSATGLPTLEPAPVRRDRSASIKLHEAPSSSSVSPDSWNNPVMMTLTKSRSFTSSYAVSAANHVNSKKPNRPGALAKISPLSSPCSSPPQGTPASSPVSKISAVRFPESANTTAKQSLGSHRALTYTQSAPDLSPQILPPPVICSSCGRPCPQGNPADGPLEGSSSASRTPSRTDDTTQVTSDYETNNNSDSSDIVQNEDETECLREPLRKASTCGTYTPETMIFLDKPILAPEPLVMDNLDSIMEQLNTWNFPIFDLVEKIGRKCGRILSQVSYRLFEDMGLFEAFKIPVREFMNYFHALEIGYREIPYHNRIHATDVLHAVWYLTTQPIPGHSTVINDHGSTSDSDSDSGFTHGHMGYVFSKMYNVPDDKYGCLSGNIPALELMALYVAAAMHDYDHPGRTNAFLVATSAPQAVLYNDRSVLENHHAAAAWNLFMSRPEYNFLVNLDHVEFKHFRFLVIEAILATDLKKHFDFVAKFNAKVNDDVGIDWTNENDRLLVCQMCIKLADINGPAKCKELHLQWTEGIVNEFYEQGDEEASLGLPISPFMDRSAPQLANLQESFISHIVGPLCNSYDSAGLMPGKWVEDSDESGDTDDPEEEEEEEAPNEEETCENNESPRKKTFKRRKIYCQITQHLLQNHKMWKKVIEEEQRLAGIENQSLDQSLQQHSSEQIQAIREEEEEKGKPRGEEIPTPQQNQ
experimental.protocol: Inhibition of cardiac phosphodiesterase III, dog heart enzyme preparation
Format: biochemical
pIC50: −log10 of the molar value.
readout.kind: pIC50

>>> recorded_result("Cc1[nH]c(=O)c(C#N)cc1-c1ccncc1 [milrinone, reference compound]")
6.24

###

System: troponin
experimental.protocol: Retention time in troponin high-performance liquid affinity chromatography (HPLAC) column, calcium dependent binding to troponin
recorded.conditions: Ca^2+ solution / EDTA solution
# maps each entry to its Ratio Ca^2+ /EDTA (retention times in troponin-HPLAC column)
readout.kind: Ratio Ca^2+ /EDTA (retention times in troponin-HPLAC column)

>>> recorded_result("CC(=O)C(=NNc1ccc(C2=NNC(=O)CC2)cc1)C(C)=O")
1.29
>>> recorded_result("CC1NC(=O)NN=C1c1ccc(NN=C(C#N)C#N)cc1 (centres unmarked)")
2.00
>>> recorded_result("N#CC(C#N)=NNc1ccc(C2=NNC(=O)NC2)cc1")
2.33
>>> recorded_result("O=C1CCC(c2ccc(Nc3ccncc3)cc2)=NN1 [MCI-154, reference compound]")
0.52
>>> recorded_result("CC1CC(=O)NN=C1/C=C/c1ccc(NN=C(C#N)C#N)cc1 (centres unmarked)")
1.69
>>> recorded_result("CC1(C)C(=O)Nc2cc3[nH]c(-c4ccncc4)nc3cc21 [adibendan, reference compound]")
0.99
>>> recorded_result("CC1SC(=O)NN=C1c1ccc(NN=C(C#N)C#N)cc1 (centres unmarked)")
2.19
>>> recorded_result("N#CC(C#N)=NNc1ccc(C=CC2=NNC(=O)SC2)cc1")
2.30
>>> recorded_result("COc1ccc(-c2nc3ccc(C4=NNC(=O)CC4C)cc3[nH]2)cc1 (centres unmarked) [pimobendan, reference compound]")
0.88
>>> recorded_result("N#CC(C#N)=NNc1ccc(C2=NNC(=O)CC2)cc1")
1.59
>>> recorded_result("Cc1[nH]c(=O)c(C#N)cc1-c1ccncc1 [milrinone, reference compound]")
1.00
